assay: Selectivity index, ratio of CC50 for cytotoxicity against human MT4 cells assessed as reduction in cell viability to EC50 for antiviral activity against NNRTI-resistant HIV-1 harboring L100I mutant infected in human MT4 cells; assay type: toxicity, cell-based; conditions: read-out: Ratio CC50/EC50
selectivity ratio below 700 gives f; selectivity ratio at or above it gives t.

Mol Smiles: Cc1cc(C#N)cc(C)c1Oc1nc(NC2CCN(c3ccc(NS(=O)(=O)C4CC4)cc3)CC2)ncc1C(N)=O
Group Label: t
--
Mol Smiles: Cc1cc(C#N)cc(C)c1Oc1nc(NC2CCN(c3ccc(NS(C)(=O)=O)cc3)CC2)ncc1C(N)=O
Group Label: t
--
Mol Smiles: Cc1cc(C#N)cc(C)c1Oc1nc(NC2CCN(c3ccc(NS(N)(=O)=O)cc3)CC2)ncc1C(N)=O
Group Label: f
--
Mol Smiles: Cc1cc(C#N)cc(C)c1Oc1nc(NC2CCN(c3ccc(N)cc3)CC2)ncc1C(N)=O
Group Label: f
--
Mol Smiles: Cc1cc(C#N)cc(C)c1Oc1nc(Nc2ccc(C#N)cc2)ncc1C(N)=O
Group Label: f

INPUT: Could you verify whether the entry Cc1cc(C#N)cc(C)c1Oc1nc(NC2CCN(c3ccc(NS(=O)(=O)N(C)C)cc3)CC2)ncc1C(N)=O shows selectivity ratio of no less than 700?
OUTPUT: t

INPUT: Could you verify whether the entry Cc1cc(C#N)cc(C)c1Oc1nc(NC2CCN(Cc3ccc(S(N)(=O)=O)cc3)CC2)ncc1C(N)=O shows selectivity ratio of no less than 700?
OUTPUT: t

----------
Task for the reader: assign each of the following molecules its reported EC50.
system: Human immunodeficiency virus 1; test: Antiviral activity against NNRTI-resistant HIV-1 harboring E138K mutant infected in human MT4 cells assessed as virus-induced cytopathicity incubated for 5 days by MTT assay; type: functional, organism-based; conditions: Human immunodeficiency virus 1, MT4, 120 h

Known results for molecules:
Mol Smiles: Cc1cc(C#N)cc(C)c1Oc1nc(NC2CCN(Cc3ccc(S(N)(=O)=O)cc3)CC2)ncc1C(N)=O
EC50: 291 nM
//
Mol Smiles: Cc1cc(C#N)cc(C)c1Oc1nc(NC2CCN(Cc3ccc(S(C)(=O)=O)cc3)CC2)ncc1C(N)=O
EC50: 149 nM

Record EC50 per entry; entries follow.
1. Cc1cc(C#N)cc(C)c1Oc1nc(NC2CCN(c3ccc(NS(=O)(=O)N(C)C)cc3)CC2)ncc1C(N)=O
2. Cc1cc(C#N)cc(C)c1Oc1nc(NC2CCN(c3ccc(N)cc3)CC2)ncc1C(N)=O

OUTPUT:
26 nM
208 nM

----------
Task for the reader: assign each of the following compounds its reported EC50.
tested on: Human immunodeficiency virus 1; test: Antiviral activity against NNRTI-resistant HIV-1 harboring Y188L mutant infected in human MT4 cells assessed as virus-induced cytopathicity incubated for 5 days by MTT assay; assay type: functional, organism-based; details: Human immunodeficiency virus 1, MT4, 120 h
Note to self: number, then unit, no commentary.

Known results for compounds:
Mol Smiles: Cc1cc(C#N)cc(C)c1Oc1nc(Nc2ccc(C#N)cc2)ncc1C(N)=O
Reported Measurement: 193 nM
--
Mol Smiles: Cc1cc(C#N)cc(C)c1Oc1nc(NC2CCN(c3ccc(NS(N)(=O)=O)cc3)CC2)ncc1C(N)=O
Reported Measurement: 118 nM
--
Mol Smiles: Cc1cc(C#N)cc(C)c1Oc1nc(NC2CCN(c3ccc(NS(=O)(=O)C4CC4)cc3)CC2)ncc1C(N)=O
Reported Measurement: 35 nM
--
Mol Smiles: Cc1cc(C#N)cc(C)c1Oc1nc(Nc2ccc(C#N)c(F)c2)ncc1C(N)=O
Reported Measurement: 101 nM
--
Mol Smiles: Cc1cc(C#N)cc(C)c1Oc1nc(NC2CCN(Cc3ccc(S(N)(=O)=O)cc3)CC2)ncc1C(N)=O
Reported Measurement: 234 nM
--
Mol Smiles: Cc1cc(C#N)cc(C)c1Oc1nc(NC2CCN(c3ccc(NS(C)(=O)=O)cc3)CC2)ncc1C(N)=O
Reported Measurement: 24 nM
--
Mol Smiles: Cc1cc(C#N)cc(C)c1Oc1nc(NC2CCN(c3ccc(N)cc3)CC2)ncc1C(N)=O
Reported Measurement: 255 nM
--
Mol Smiles: Cc1cc(C#N)cc(C)c1Oc1nc(NC2CCN(c3ccc(NS(=O)(=O)N(C)C)cc3)CC2)ncc1C(N)=O
Reported Measurement: 33 nM

Record EC50 per entry; entries follow.
1. Cc1cc(C#N)cc(C)c1Oc1nc(NC2CCN(Cc3ccc(S(C)(=O)=O)cc3)CC2)ncc1C(N)=O
2. Cc1cc(C#N)cc(C)c1Oc1nc(NC2CCN(Cc3ccc(C(N)=O)cc3)CC2)ncc1C(N)=O
3. Cc1cc(C#N)cc(C)c1Oc1nc(NC2CCN(Cc3ccc(B(O)O)cc3)CC2)ncc1C(N)=O

OUTPUT:
69 nM
771 nM
209 nM
